- TARGET_DESC: human P2X7 receptor (Homo sapiens, UniProt Q99572, R270H)
- Construct: expressed in transfected cells
- Sequence (Q99572 whole entry R270H): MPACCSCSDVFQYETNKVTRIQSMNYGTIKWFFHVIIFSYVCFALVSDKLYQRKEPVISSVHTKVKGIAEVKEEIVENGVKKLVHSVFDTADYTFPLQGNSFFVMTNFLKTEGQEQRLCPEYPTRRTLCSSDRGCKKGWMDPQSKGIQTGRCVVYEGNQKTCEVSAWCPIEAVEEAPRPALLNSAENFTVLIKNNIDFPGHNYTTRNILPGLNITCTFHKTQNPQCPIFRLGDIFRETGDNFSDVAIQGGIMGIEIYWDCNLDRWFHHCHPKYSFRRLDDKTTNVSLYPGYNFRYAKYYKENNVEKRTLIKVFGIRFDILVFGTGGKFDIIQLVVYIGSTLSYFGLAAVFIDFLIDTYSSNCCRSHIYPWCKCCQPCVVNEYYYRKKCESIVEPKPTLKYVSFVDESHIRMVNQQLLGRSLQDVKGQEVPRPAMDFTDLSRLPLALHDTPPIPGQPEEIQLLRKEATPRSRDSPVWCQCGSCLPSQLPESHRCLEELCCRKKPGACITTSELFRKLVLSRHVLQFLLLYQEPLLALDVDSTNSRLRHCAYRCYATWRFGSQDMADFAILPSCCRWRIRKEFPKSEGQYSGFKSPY
- RUN_DESCRIPTION: Evaluation of a human P2X7 receptor inhibitory activity (Yo-Pro uptake, BzATP stimulation, FLIPR TETRA)
- Type: cell-based
- TEST_CONDITIONS: antagonistic activity for the human P2X7 receptor, 1321N1 cell transfected with the human P2X7 receptor gene, Yo-Pro fluorescence, class symbols
- Method: Test Example 1 Evaluation of a Human P2X7 Receptor Inhibitory Activity Stably expressing cell line (1321N1 cell transfected with the human P2X7 receptor gene (GenBank accession number NM_002562.5 including T606C and G952A SNP)) was used. […] Measurement of fluorescence intensity by FLIPR TETRA was started. […] Changing values of fluorescence intensity by the compound of the present invention were calculated by difference between maximum and minimum fluorescence intensity for 20 minutes. […]
pIC50: −log10 of the molar value.
Each item that follows carries a reported pIC50.

The examples below pair each entry with its known result.
input_smiles=O=c1cc(-c2cccc(C(F)(F)F)c2Cl)n(Cc2cccc(F)c2)cc1Br target_desc="human P2X7 receptor (Homo sapiens, UniProt Q99572, R270H)" result="6.30 to 7.00"
input_smiles=COc1cn(Cc2ccccc2SC(F)(F)F)c(-c2cccc(C(F)(F)F)c2Cl)nc1=O target_desc="human P2X7 receptor (Homo sapiens, UniProt Q99572, R270H)" result="6.30 to 7.00"

Exercise: Look up pIC50: O=c1ccn(Cc2ccc(C(F)(F)F)o2)c(-c2cccc(C(F)(F)F)c2Cl)c1
Solution: 6.00 to 6.30

Exercise: Field entry: COc1cn(Cc2cccc(F)c2)c(-c2cccc(C(F)(F)F)c2Cl)nc1=O
Solution: 7.00 to 7.30

Exercise: Field entry: Cc1cc(Cn2ccc(=O)cc2-c2cccc(C(F)(F)F)c2Cl)on1
Solution: 5.00 to 6.00

Exercise: Field entry: CC(C)(C)OC(=O)Nc1cn(Cc2ccccc2)c(-c2cccc(C(F)(F)F)c2Cl)nc1=O
Solution: 7.00 to 7.30

Exercise: Field entry: O=c1ccn(Cc2cccc(OC(F)(F)F)c2)c(-c2cccc(C(F)(F)F)c2Cl)c1
Solution: 5.00 to 6.00

Exercise: Field entry: COc1cn(Cc2ccc(F)cc2C)c(-c2cccc(C(F)(F)F)c2Cl)nc1=O
Solution: 7.00 to 7.30

Exercise: Field entry: O=c1ccn(Cc2cccc(-c3ccccc3)c2)c(-c2cccc(C(F)(F)F)c2Cl)c1
Solution: 5.00 to 6.00

Exercise: Field entry: O=c1ccn(Cc2ccc3ccccc3c2)c(-c2cccc(C(F)(F)F)c2Cl)c1
Solution: 6.00 to 6.30

====

- TARGET_DESC: human P2X7 receptor (Homo sapiens, UniProt Q99572, R270H)
- Construct: expressed in transfected cells
- RUN_DESCRIPTION: Evaluation of a human P2X7 receptor inhibitory activity (Yo-Pro uptake, BzATP stimulation, FLIPR TETRA)
- Format: cell-based
- TEST_CONDITIONS: antagonistic activity for the human P2X7 receptor, 1321N1 cell transfected with the human P2X7 receptor gene, Yo-Pro fluorescence, class symbols
PROPERTY_LABEL: IC50

The examples below pair each entry with its known result.
molecule=COc1cn(Cc2ccccc2)c(C2=C[C@H]3CC[C@@H]2C3)nc1=O property_label=IC50 result="1 to 10 µM"
molecule=O=c1nc(-c2cccc(C(F)(F)F)c2Cl)n(Cc2ccccc2)cc1OC(F)F property_label=IC50 result="0.1 to 0.5 µM"
molecule=NC(=O)c1ccc(Cn2ccc(=O)cc2-c2cccc(C(F)(F)F)c2Cl)cc1 property_label=IC50 result="1 to 10 µM"
molecule=N#CCNc1cn(Cc2ccccc2)c(-c2cccc(C(F)(F)F)c2Cl)nc1=O property_label=IC50 result="0.05 to 0.1 µM"

Exercise: Look up IC50: O=c1ccn(Cc2ccc(C(F)(F)F)cc2)c(-c2cccc(C(F)(F)F)c2Cl)c1
Solution: 1 to 10 µM

Exercise: Field entry: CC(C#N)Oc1cn(Cc2ccccc2)c(-c2cccc(C(F)(F)F)c2Cl)nc1=O (stereo not drawn)
Solution: < 0.05 µM

Exercise: Field entry: Cc1cccc(Cn2ccc(=O)cc2-c2cccc(C(F)(F)F)c2Cl)c1
Solution: 0.1 to 0.5 µM

Exercise: Field entry: COc1ccc(Cn2ccc(=O)cc2-c2cccc(C(F)(F)F)c2Cl)cc1
Solution: 1 to 10 µM

Exercise: Field entry: O=c1ccn(Cc2ccccc2)c(-c2cccc(Cl)c2Cl)c1
Solution: 0.5 to 1 µM
